- ASSAYED SYSTEM: DNA gyrase (Escherichia coli, UniProt P0AES4+P0AES6)
- TEST PROTOCOL: Inhibition of Escherichia coli DNA gyrase supercoiling activity using pBR322 as substrate incubated for 30 mins measured by gel-based assay
MEASUREMENT NAME: pIC50
The read-out pIC50 is expressed as -log10 of concentration in moles per litre.

Could you share which pIC50 value was measured for Cl.NCC(NC(=O)c1cccc(-c2cccs2)c1)c1ccc(O)cc1 (stereo unspecified) ?
6.52
